B1: E3 ubiquitin-protein ligase NEDD4, residues 836 to 881; numbered along this chain, P46934 (parent)
chain: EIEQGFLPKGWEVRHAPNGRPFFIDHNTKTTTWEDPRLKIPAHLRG

Variants of: B1
Assay: abundance fitness (aPCA) (normalised: wild type 0, dead -1); higher = more abundant; growth selection in yeast, the domain comes from the species named
Details: Homo sapiens
The following variants are listed with their measured abundance fitness values.
I only need the number, thanks.

Some solved entries appear below for comparison.
>  <variant>
P36Q

>  <result value>
-1.03

$$$$
>  <variant>
P21F

>  <result value>
-0.601

$$$$
>  <variant>
R20C

>  <result value>
-0.278

$$$$
>  <variant>
D35R

>  <result value>
-0.554

$$$$

Now for a further variant.
IN: Entry P36E : reported abundance fitness = ?
OUT: -0.283
